tested on: calf thymus DNA; assay: Equilibrium dialysis of racemic complexes against calf thymus DNA (Scatchard, dialysate CD); assay type: binding; conditions: in words
Parameter: aggregation in solution

[Ru+2].c1ccc(-c2ccnc3c2ccc2c(-c4ccccc4)ccnc23)cc1.c1ccc(-c2ccnc3c2ccc2c(-c4ccccc4)ccnc23)cc1.c1ccc(-c2ccnc3c2ccc2c(-c4ccccc4)ccnc23)cc1 [Ru(DIP)3^2+, reference compound]    extensive aggregation
N=C1C(=N)c2ccccc2-c2ccccc21.N=C1C(=N)c2ccccc2-c2ccccc21.N=C1C(=N)c2ccccc2-c2ccccc21.[Ru+2] [Ru(phi)3^2+]    extensive aggregation

----------
Assay: Solubility in buffer
Assay type: physicochemical
Conditions: chloride salts; 5 mM Tris, 50 mM NaCl, pH 7.5, 24 hrs., 25° C.; SD in parentheses
Method: Measurement of Solubilities: Solubilities of the compounds wre measured by preparing saturated solutions of metal complex in buffer (50mM NaCl, 5 mM Tris, pH 7.5) and allowng the suspensions to equilibrate for 24 hours at 25 C. After that time, the solutions were spun down in an Eppendorff microcentrifuge at 15,000 rev/min for 2 minutes and the supernatant was carefully removed by pipette. After dilution, the ruthenuim concentrattions were measured by UV-visible absorbance.
Parameter: Solubilities in Buffer

Please review the entries below; each comes with its answer.
N=C1C(=N)c2ccccc2-c2ccccc21.[Ru+2].c1cnc2c(c1)ccc1cccnc12.c1cnc2c(c1)ccc1cccnc12    0.17 (.01) mM
[Ru].c1cnc2c(c1)ccc1cccnc12.c1cnc2c(c1)ccc1cccnc12.c1cnc2c(c1)ccc1cccnc12 [Ru(phen)3^2+, reference compound]    159. (5.3) mM
[Ru+2].c1ccc(-c2ccnc3c2ccc2c(-c4ccccc4)ccnc23)cc1.c1cnc2c(c1)ccc1cccnc12.c1cnc2c(c1)ccc1cccnc12    9. (1.2) mM

Prompt: Entry [Ru+2].c1ccc(-c2ccnc3c2ccc2c(-c4ccccc4)ccnc23)cc1.c1ccc(-c2ccnc3c2ccc2c(-c4ccccc4)ccnc23)cc1.c1cnc2c(c1)ccc1cccnc12 needs its Solubilities in Buffer filled in; supply it.
Completion: 0.18 (.01) mM

Prompt: Entry O=C1c2cccnc2-c2ncccc21.[Ru+2].c1cnc2c(c1)ccc1cccnc12.c1cnc2c(c1)ccc1cccnc12 [Ru(phen)2 (flone)^2+, [Ru(phen)2 (4,5-diazafuorene-9-one)]Cl2] needs its Solubilities in Buffer filled in; supply it.
Completion: 60. (2.2) mM

----------
molecular target: pBR322 DNA; assay: Unwinding of supercoiled pBR322 DNA (topoisomerase I assay); details: read-out: Unwinding concentration; needed to unwind 11 of 22 supercoils; [DNA] 47 μM for phi complexes, 31.5 μM others; 60 min
Parameter: pEC50
In plain terms, pEC50 is the concentration in mol/L turned into minus its base-10 logarithm.

Please review the entries below; each comes with its answer.
N=C1C(=N)c2ccccc2-c2ccccc21.[Ru+2].c1ccc(-c2ccccn2)nc1.c1ccc(-c2ccccn2)nc1    5.96
N=C1C(=N)c2ccccc2-c2ccccc21.N=C1C(=N)c2ccccc2-c2ccccc21.[Ru+2].c1ccc(-c2ccccn2)nc1    6.22
[Ru+2].c1ccc(-c2ccccn2)nc1.c1ccc(-c2ccccn2)nc1.c1ccc(-c2ccnc3c2ccc2c(-c4ccccc4)ccnc23)cc1    3.77
[Ru+2].c1ccc(-c2ccccn2)nc1.c1ccc(-c2ccccn2)nc1.c1ccc(-c2ccccn2)nc1 [Ru(bpy)3^2+, reference compound]    3.19
[Ru+2].c1ccc(-c2ccccn2)nc1.c1cnc2c(c1)ccc1cccnc12.c1cnc2c(c1)ccc1cccnc12    4.96

Now examine the next entry.
Prompt: Report measured pEC50 on pBR322 DNA; entry: N=C1C(=N)c2ccccc2-c2ccccc21.[Ru+2].c1cnc2c(c1)ccc1cccnc12.c1cnc2c(c1)ccc1cccnc12
Completion: 5.92
